Sourced from the supplement of paper PMC11061612

Test system: SNU-C1 (Colorectal Carcinoma);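 also: after 72 h of two-drug dosing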
Assay Overview: Bliss excess, mean over the matrix (fraction); higher = more synergy
// reported Bliss excess per item
Measure Name: Bliss excess

>>> endpoint_value("CC(=O)c1c(C)c2cnc(Nc3ccc(N4CCNCC4)cn3)nc2n(C2CCCC2)c1=O [Palbociclib] + CC1(C)CCC(CN2CCN(c3ccc(C(=O)NS(=O)(=O)c4ccc(NCC5CCOCC5)c([N+](=O)[O-])c4)c(Oc4cnc5[nH]ccc5c4)c3)CC2)=C(c2ccc(Cl)cc2)C1 [Venetoclax] (first compound max 10 µM, 7x7, partner max 1 µM)")
-0.093
>>> endpoint_value("CC1(C)CCC(CN2CCN(c3ccc(C(=O)NS(=O)(=O)c4ccc(NCC5CCOCC5)c([N+](=O)[O-])c4)c(Oc4cnc5[nH]ccc5c4)c3)CC2)=C(c2ccc(Cl)cc2)C1 [Venetoclax] + Cc1cc2ncnn2cc1Nc1ncc2c(n1)n(C1CCOCC1)c(=O)n2C [AZD7648] (first compound max 1 µM, 7x7, partner max 10 µM)")
-0.0259
>>> endpoint_value("CN(CCO)CC[C@H](CSc1ccccc1)Nc1ccc(S(=O)(=O)NC(=O)c2ccc(N3CCC([C@@H](O)c4ccccc4-c4ccc(Cl)cc4)CC3)cc2)cc1S(=O)(=O)C(F)(F)F [AZD4320] + CN(C)CCCOc1ccc(-c2ccc3ncc4c(c3c2)n(C2CCOCC2)c(=O)n4C)cn1 [AZD0156] (first compound max 1 µM, 7x7, partner max 1 µM)")
-0.0283

---

Test system: KINGS-1 (Low Grade Glioma)
Assay Overview: combination Emax (second highest fraction inhibited in the dose matrix, 72 h); higher = more inhibition; extreme values may be limits of the assay
// reported combination Emax per item
Measure Name: combination Emax

>>> endpoint_value("CN(CCO)CC[C@H](CSc1ccccc1)Nc1ccc(S(=O)(=O)NC(=O)c2ccc(N3CCC([C@@H](O)c4ccccc4-c4ccc(Cl)cc4)CC3)cc2)cc1S(=O)(=O)C(F)(F)F [AZD4320] + C=CCn1c(=O)c2cnc(Nc3ccc(N4CCN(C)CC4)cc3)nc2n1-c1cccc(C(C)(C)O)n1 [AZD1775] (first compound max 1 µM, partner max 1 µM)")
0.526
>>> endpoint_value("CS(=O)(=O)CCNCc1ccc(-c2ccc3ncnc(Nc4ccc(OCc5cccc(F)c5)c(Cl)c4)c3c2)o1 [Lapatinib] + C[C@@H](Oc1cc(-c2cnn(C3CCNCC3)c2)cnc1N)c1c(Cl)ccc(F)c1Cl [Crizotinib] (first compound max 10 µM, 7x7, partner max 10 µM)")
0.921
>>> endpoint_value("N#Cc1cnc(Nc2cc(NC[C@H]3CNCCO3)c(C(F)(F)F)cn2)cn1 [SRA737] + O=c1[nH]cc(F)c(=O)[nH]1 [5-Fluorouracil] (first compound max 10 µM, 7x7, partner max 20 µM)")
0.122
>>> endpoint_value("Cc1cc2ncnn2cc1Nc1ncc2c(n1)n(C1CCOCC1)c(=O)n2C [AZD7648] + C[C@@H]1COCCN1C2=NC(=NC(=C2)C3(CC3)[S@](=N)(=O)C)C4=C5C=CNC5=NC=C4 [AZD6738] (first compound max 10 µM, 7x7, partner max 10 µM)")
0.283

---

System: H-EMC-SS (Chondrosarcoma)
Assay Overview: combination Emax (second highest fraction inhibited in the dose matrix, 72 h); higher = more inhibition; extreme values may be limits of the assay
// -1 strictly below 0.3 in combination Emax; 1 otherwise

>>> classification("C[C@@H](c1ccc2nccn2c1)n1nnc2ncc(-c3cnn(C)c3)nc21 [Savolitinib] + CC1(C)CCC(CN2CCN(c3ccc(C(=O)NS(=O)(=O)c4ccc(NCC5CCOCC5)c([N+](=O)[O-])c4)c(Oc4cnc5[nH]ccc5c4)c3)CC2)=C(c2ccc(Cl)cc2)C1 [Venetoclax] (first compound max 1 µM, 7x7, partner max 1 µM)")
-1
>>> classification("COc1cccc(OCCCN)c1-c1cc(Nc2cnc(C#N)cn2)n[nH]1 [Prexasertib] + Cc1cc2ncnn2cc1Nc1ncc2c(n1)n(C1CCOCC1)c(=O)n2C [AZD7648] (first compound max 1 µM, 7x7, partner max 10 µM)")
1
>>> classification("N#Cc1cnc(Nc2cc(NC[C@H]3CNCCO3)c(C(F)(F)F)cn2)cn1 [SRA737] + O=c1[nH]cc(F)c(=O)[nH]1 [5-Fluorouracil] (first compound max 10 µM, 7x7, partner max 20 µM)")
-1
>>> classification("Cc1nc(Nc2ncc(C(=O)Nc3c(C)cccc3Cl)s2)cc(N2CCN(CCO)CC2)n1 [Dasatinib] + CC(=O)Nc1cccc(-n2c(=O)n(C3CC3)c(=O)c3c(Nc4ccc(I)cc4F)n(C)c(=O)c(C)c32)c1 [Trametinib] (first compound max 2 µM, 7x7, partner max 1 µM)")
1
>>> classification("Cn1cnc2c(F)c(Nc3ccc(Br)cc3Cl)c(C(=O)NOCCO)cc21 [Selumetinib] + CCN(CCO)CCCOc1ccc2c(Nc3cc(CC(=O)Nc4cccc(F)c4)[nH]n3)ncnc2c1 [AZD2811] (first compound max 10 µM, 7x7, partner max 1 µM)")
-1
>>> classification("CN(CCO)CC[C@H](CSc1ccccc1)Nc1ccc(S(=O)(=O)NC(=O)c2ccc(N3CCC([C@@H](O)c4ccccc4-c4ccc(Cl)cc4)CC3)cc2)cc1S(=O)(=O)C(F)(F)F [AZD4320] + CCN(CCO)CCCOc1ccc2c(Nc3cc(CC(=O)Nc4cccc(F)c4)[nH]n3)ncnc2c1 [AZD2811] (first compound max 1 µM, 7x7, partner max 1 µM)")
1
>>> classification("Cc1c2c(nn1C)CSCc1cc(n(C)n1)CSc1cc(c3ccccc3c1)OCCCc1c(C(=O)O)n(C)c3c-2c(Cl)ccc13 [AZD5991] + CC(=O)O[C@H]1C(=O)[C@@]2(C)[C@H]([C@H](OC(=O)c3ccccc3)[C@]3(O)C[C@H](OC(=O)[C@H](O)[C@@H](NC(=O)c4ccccc4)c4ccccc4)C(C)=C1C3(C)C)[C@]1(OC(C)=O)CO[C@@H]1C[C@@H]2O [Paclitaxel] (first compound max 1 µM, 7x7, partner max 3 µM)")
-1
